tested on: MDA-MB-453; test: drug sensitivity score (DSS), in combination with BLU9931 (DSS (weighted AUC score)); higher = more sensitive (stronger viability decrease); extreme values may be limits of the assay; conditions: BLU9931 100 nM; 72 h
Decision: drug sensitivity score compared against 6; not below it gives criterion met, below it gives criterion not met.

{"compound": "CCOCc1nc2c(N)nc3ccccc3c2n1CC(C)(C)O", "category": "criterion not met"}
{"compound": "CN(C)CC#Cc1ccc(OCCCc2sc(N3CCc4cccc(C(=O)Nc5nc6ccccc6s5)c4C3)nc2C(=O)O)c(F)c1", "category": "criterion met"}
{"compound": "CC(C)(O)CC(=O)NCCn1ccc2ncnc(Nc3ccc(Oc4cccc(C(F)(F)F)c4)c(Cl)c3)c21", "category": "criterion met"}
{"compound": "C=CC(=O)Nc1cccc(Oc2nc(Nc3ccc(N4CCN(C)CC4)cc3)nc3ccsc23)c1", "category": "criterion not met"}
{"compound": "C[C@@H]1C[C@H]2[C@@H]3CCC4=CC(=O)C=C[C@]4(C)[C@@]3(F)[C@@H](O)C[C@]2(C)[C@@]1(O)C(=O)CO", "category": "criterion not met"}
{"compound": "Nc1cccc2c1C(=O)N(C1CCC(=O)NC1=O)C2=O (configuration not stated) [Pomalidomide]", "category": "criterion not met"}
{"compound": "CCCCCCCCCCCCCCCCCCOP(=O)([O-])OC1CC[N+](C)(C)CC1", "category": "criterion not met"}
{"compound": "COc1cc2nccc(Oc3ccc(NC(=O)Nc4cc(C)on4)c(Cl)c3)c2cc1OC", "category": "criterion not met"}
{"compound": "CO[C@H]1C[C@@H]2CC[C@@H](C)[C@@](O)(O2)C(=O)C(=O)N2CCCC[C@H]2C(=O)O[C@H]([C@H](C)C[C@@H]2CC[C@@H](OCCO)[C@H](OC)C2)CC(=O)[C@H](C)/C=C(\\C)[C@@H](O)[C@@H](OC)C(=O)[C@H](C)C[C@H](C)/C=C/C=C/C=C/1C", "category": "criterion met"}
{"compound": "CC1(C)C(C(=O)Nc2ccc(S(=O)(=O)c3ccc(NC(=O)C4C(C)(C)C4(C)C)cc3)cc2)C1(C)C", "category": "criterion not met"}
{"compound": "CCN(CC)CCN(Cc1ccc(-c2ccc(C(F)(F)F)cc2)cc1)C(=O)Cn1c(SCc2ccc(F)cc2)nc(=O)c2c1CCC2", "category": "criterion not met"}
{"compound": "COc1cccc(OCCCN)c1-c1cc(Nc2cnc(C#N)cn2)n[nH]1", "category": "criterion met"}
{"compound": "CC(C)NC[C@@H](C(=O)N1CCN(c2ncnc3c2[C@H](C)C[C@H]3O)CC1)c1ccc(Cl)cc1", "category": "criterion met"}
{"compound": "Cc1cc(C)c(CNC(=O)c2cc(-c3ccc(CN4CCOCC4)cc3)cc3c2cnn3C2CCCC2)c(=O)[nH]1", "category": "criterion not met"}
{"compound": "CN1CC[C@@H](NC(=O)Nc2ccc(C#N)cc2)C[C@@H]1c1nc2ccccc2[nH]1", "category": "criterion not met"}
{"compound": "CCN(CC)CCCC(C)Nc1ccnc2cc(Cl)ccc12 (configuration not stated)", "category": "criterion met"}
{"compound": "COc1cc2c(Oc3ccc(NC(=O)C4(C(=O)Nc5ccc(F)cc5)CC4)cc3F)ccnc2cc1OCCCN1CCOCC1", "category": "criterion not met"}
{"compound": "Nc1cc(C(F)(F)F)c(-c2cc(N3CCOCC3)nc(N3CCOCC3)n2)cn1", "category": "criterion met"}
{"compound": "Cn1cncc1[C@@](N)(c1ccc(Cl)cc1)c1ccc2c(c1)c(-c1cccc(Cl)c1)cc(=O)n2C", "category": "criterion not met"}
{"compound": "CCNC(=O)C[C@@H]1N=C(c2ccc(Cl)cc2)c2cc(OC)ccc2-n2c(C)nnc21", "category": "criterion met"}
{"compound": "COc1c(C)cnc(Cn2cnc3c(Cl)nc(N)nc32)c1C", "category": "criterion met"}
